The entries below are paired with their reported Weight change.
Test system: Mus musculus
Assay: Average weight change of BDF1 female mice at a dose of 25.6 mg/kg per injection
Format: functional
Form entry: value (g) — number only.

| compound | measurement target | unit tag | Weight change |
| --- | --- | --- | --- |
| CC1=C(N)C(=O)c2c(COC(N)=O)c3n(c2C1=O)CC1C3N1C (configuration not stated) | Mus musculus | g | -0.1 |
| CC1=C(N2CC2C)C(=O)c2c(COC(N)=O)c3n(c2C1=O)CC1C3N1C (configuration not stated) | Mus musculus | g | -1 |

Q: Name the recorded Weight change of the item CC1=C(N2CC2)C(=O)c2c(COC(N)=O)c3n(c2C1=O)CC1C3N1C (configuration not stated) in your answer.
Result: -2.2

Q: Answer with the recorded Weight change for the compound listed here: COC1=C(C)C(=O)c2c(c(COC(N)=O)c3n2CC2NC32)C1=O (configuration not stated)
Result: -0.4

Q: Retrieve Weight change measured for CC1=C(N)C(=O)c2c(COC(N)=O)c3n(c2C1=O)CC1NC31 (configuration not stated) and print it.
Result: -0.8

Q: Return value of Weight change for input CC1=C(N2CC2C)C(=O)c2c(COC(N)=O)c3n(c2C1=O)CC1NC31 (configuration not stated) , no commentary.
Result: -1

Q: For the compound CC1=C(N2CC2)C(=O)c2c(COC(N)=O)c3n(c2C1=O)CC1NC31 (configuration not stated) , give its measured Weight change value.
Result: -0.4

---

Tested on: P388
Experiment: Compound was tested for antitumor activity against P388 Murine leukemia in BDF1 female mice at a dose of 25.6 mg/kg per injection
Format: functional, Mus musculus
test readout: MST (% T/C)
Response body: numeric value in % T/C, unit text excluded.

Sample records with MST:
| compound | MST / % T/C |
| --- | --- |
| CC1=C(N2CC2)C(=O)c2c(COC(N)=O)c3n(c2C1=O)CC1C3N1C (stereo not given) | 239 |
| CC1=C(N2CC2C)C(=O)c2c(COC(N)=O)c3n(c2C1=O)CC1NC31 (stereo not given) | 181 |
| CC1=C(N)C(=O)c2c(COC(N)=O)c3n(c2C1=O)CC1C3N1C (stereo not given) | 100 |
| COC1=C(C)C(=O)c2c(c(COC(N)=O)c3n2CC2NC32)C1=O (stereo not given) | 167 |

Please turn your attention to the following entry.
Q: Quote MST reported for CC1=C(N)C(=O)c2c(COC(N)=O)c3n(c2C1=O)CC1NC31 (stereo not given) please.
Result: 128

---

Measured MST of individual entries
Tested on: P388
Test: Compound was tested for antitumor activity against P388 Murine leukemia in BDF1 female mice at a dose of 12.8 mg/kg per injection
Assay type: functional, Mus musculus
Design: unit not given here
Answer using only a numeral; do not append any unit.

Solved cases (4 shown):
| molecule | value |
| --- | --- |
| COC1=C(C)C(=O)c2c(c(COC(N)=O)c3n2CC2C3N2C)C1=O (stereo not given) | 213 |
| COC1=C(C)C(=O)c2c(c(COC(N)=O)c3n2CC2NC32)C1=O (stereo not given) | 139 |
| CC1=C(N2CC2)C(=O)c2c(COC(N)=O)c3n(c2C1=O)CC1C3N1C (stereo not given) | 172 |
| CC1=C(N2CC2C)C(=O)c2c(COC(N)=O)c3n(c2C1=O)CC1C3N1C (stereo not given) | 238 |

Q: Given CC1=C(N2CC2)C(=O)c2c(COC(N)=O)c3n(c2C1=O)CC1NC31 (stereo not given) , report its MST on P388.
Result: 172
